A collection of binders and their measured pERK Assay Results (AlphaLISA p-Erk1/2, HUVEC)
- tested-on: VEGFR-2 (human, UniProt P35968 20-1356)
- Sequence (P35968 20-1356): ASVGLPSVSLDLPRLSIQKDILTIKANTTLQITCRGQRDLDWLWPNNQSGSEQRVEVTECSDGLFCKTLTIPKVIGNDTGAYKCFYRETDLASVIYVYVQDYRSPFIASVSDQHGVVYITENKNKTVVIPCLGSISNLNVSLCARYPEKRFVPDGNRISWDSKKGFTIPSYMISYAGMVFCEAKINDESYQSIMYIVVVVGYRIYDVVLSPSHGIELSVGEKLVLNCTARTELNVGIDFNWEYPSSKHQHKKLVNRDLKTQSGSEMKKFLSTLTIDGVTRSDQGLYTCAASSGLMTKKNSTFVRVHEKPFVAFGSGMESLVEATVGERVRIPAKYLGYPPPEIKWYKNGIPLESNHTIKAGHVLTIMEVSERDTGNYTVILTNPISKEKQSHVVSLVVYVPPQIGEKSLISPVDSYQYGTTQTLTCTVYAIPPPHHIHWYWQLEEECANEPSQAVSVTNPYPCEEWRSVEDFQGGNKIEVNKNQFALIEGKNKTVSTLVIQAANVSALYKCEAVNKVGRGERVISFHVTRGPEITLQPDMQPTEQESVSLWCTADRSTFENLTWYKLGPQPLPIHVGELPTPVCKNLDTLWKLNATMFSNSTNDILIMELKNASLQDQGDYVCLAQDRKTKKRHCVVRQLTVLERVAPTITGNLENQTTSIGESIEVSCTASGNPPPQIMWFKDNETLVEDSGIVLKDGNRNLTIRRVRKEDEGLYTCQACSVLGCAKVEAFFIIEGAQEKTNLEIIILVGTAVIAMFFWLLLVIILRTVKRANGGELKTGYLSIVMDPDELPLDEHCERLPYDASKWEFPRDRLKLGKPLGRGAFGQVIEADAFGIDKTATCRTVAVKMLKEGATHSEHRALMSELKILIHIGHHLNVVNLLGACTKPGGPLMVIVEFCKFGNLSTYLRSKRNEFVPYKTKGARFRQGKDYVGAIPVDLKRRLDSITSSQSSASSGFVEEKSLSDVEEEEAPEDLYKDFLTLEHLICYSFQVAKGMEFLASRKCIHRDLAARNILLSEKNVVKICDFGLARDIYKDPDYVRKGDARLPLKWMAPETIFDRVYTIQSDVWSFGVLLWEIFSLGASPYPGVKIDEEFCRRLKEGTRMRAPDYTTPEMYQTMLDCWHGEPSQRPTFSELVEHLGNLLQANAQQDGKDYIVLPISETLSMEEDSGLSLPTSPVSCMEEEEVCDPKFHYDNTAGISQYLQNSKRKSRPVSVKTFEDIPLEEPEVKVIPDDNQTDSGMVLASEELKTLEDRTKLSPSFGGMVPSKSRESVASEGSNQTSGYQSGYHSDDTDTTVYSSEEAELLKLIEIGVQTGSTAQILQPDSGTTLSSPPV
- measurement-notes: cell-based or functional assay
*1 amine or outer side, *2 acyl side, *3 side chain or, on linkers, in order; H or OH if unused. Bridges are numbered along the chain shown (N, C = ends). [ ]: non-standard residue; d: D form. CO(CH2)2(OCH2CH2)17CO = O=C(CCOCCOCCOCCOCCOCCOCCOCCOCCOCCOCCOCCOCCOCCOCCOCCOCCOCCC(=O)[*:2])[*:1]; hTyr = N[C@@H](CCc1ccc(O)cc1)C(=O)O; Tle = CC(C)(C)[C@H](N)C(=O)O; H4Py = not defined here; Atb = not defined here

- binder: "{CH2CO}-[W7N]W[Tle]DVKDDLYF[hTyr]DCG-NH2 (thioether N-14; also: homodimer: Lys6 joined to Lys6 of second copy by cPEG17c (Linker Structure No. 4)) [Peptide complex Dimer Structure No. 46]"
  reported-result: "≥ 50 % activity at 20 nM"

Entry {CH2CO}-WW[Tle]DVK(CO(CH2)2(OCH2CH2)17CO)DDLYF[H4Py]DCG-NH2 (thioether N-14; reading uncertain; also: dimer joined at Lys6 side chains by cPEG17c) [Peptide complex Dimer Structure No. 32] , pERK Assay Results (AlphaLISA p-Erk1/2, HUVEC) reported as ≥ 50 % activity at 10 nM

Kindly note the recorded pERK Assay Results (AlphaLISA p-Erk1/2, HUVEC) for {CH2CO}-WW[Tle]DVKDD[Atb]YF[hTyr]DCG-NH2 (thioether N-14; reading uncertain; also: homodimer: Lys6 joined to Lys6 of second copy by OCOPEG17OCO (Linker Structure No. 6)) [Peptide complex Dimer Structure No. 52] , which is ≥ 50 % activity at 5 nM
